Can you tell me cytotoxicity at 70.5 h for the items I'm about to list?
- assay_summary: Human HepG2 cell viability assay in 384 well format
- Format: toxicity, cell-based
- Design: dose 125 nL, time 70.5 hour; concentration not given beside the values
- experimental_setup: HepG2 cells, read-out: Inhibition
Note: state the figure and append the unit.

Problem: Looking for the measured cytotoxicity at 70.5 h of `O=C(CCC1CCN(Cc2ncc[nH]2)CC1)Nc1ccccc1Cl` , can you help?
Result: -10.7%

Problem: Which cytotoxicity at 70.5 h is reported for this compound? `CCCNCc1cc2c(C)cc(C)cc2n2c(=O)n(C)nc12`
Result: -8.78%

Problem: Consider the compound Cc1csc2ncn(C(C)Cc3cccnc3)c(=O)c12 (centres undefined) and give its measured cytotoxicity at 70.5 h.
Result: -4.53%

Problem: Given O=C(C(CNCc1cccs1)c1ccccc1)N1CCOCC1 (centres undefined) , state its recorded cytotoxicity at 70.5 h.
Result: 7.5%

Problem: // lookup cytotoxicity at 70.5 h for O=S(=O)(CCCN1CCOC(Cn2cccn2)C1)c1ccccc1 (centres undefined)
Result: 2.06%

Problem: Looking for the measured cytotoxicity at 70.5 h of `c1ccc2c(Cc3nnc([C@H]4CCN(C5CCOCC5)C4)o3)c[nH]c2c1` , can you help?
Result: -0.535%

Problem: Given the entry `CCN1CC2(CCC1=O)CCN(c1ccc(C(C)=O)cn1)CC2` , report its measured cytotoxicity at 70.5 h.
Result: -3.76%

Problem: Returns the measured cytotoxicity at 70.5 h for the input compound. Input: O=C(NCCc1c[nH]cn1)C1CCCN(C2CCOCC2)C1 (centres undefined)
Result: -5.69%

Problem: Given the compound `CCc1noc(CN2CCCN(C(N)=O)CC2)n1` , what is its reported cytotoxicity at 70.5 h?
Result: -12%

Problem: What cytotoxicity at 70.5 h value was documented for this compound, `COc1nn(C)cc1C(=O)N1CCC(c2nnc(C3CC3)o2)CC1` ?
Result: -1.01%

Problem: Reported cytotoxicity at 70.5 h for Cc1noc(C(C)N2CCN(CC(=O)N3CCOCC3)CC2)n1 (centres undefined) : what is it?
Result: 24%

Problem: Please give the measured cytotoxicity at 70.5 h for this compound: `Cc1cc(C)n2nc(CC(=O)N[C@H]3C[C@H]4CN(C)CCN4C3)nc2n1`
Result: -7.89%

Problem: Would you mind telling me what cytotoxicity at 70.5 h value was observed for `Cn1cc(CN2CC[C@H]3OCC[C@@H](C(=O)NCc4ccco4)[C@@H]3C2)cn1` ?
Result: -8%

Problem: Would you kindly share the measured cytotoxicity at 70.5 h for `Cc1csc(CCNC(=O)Nc2cc(C(F)(F)F)c[nH]c2=O)n1` ?
Result: -1.34%

Problem: What cytotoxicity at 70.5 h value was documented for this compound, `CCN1CCN(C2CCN(Cc3noc(C4CC4)n3)CC2)C1=O` ?
Result: -3.61%

Problem: Can you look up the measured cytotoxicity at 70.5 h of CC1CCN(C(=O)C(C)Oc2ccc3c(c2)OCO3)CC1 (centres undefined) for me?
Result: 8.31%

Problem: What cytotoxicity at 70.5 h value was documented for this compound, `COCc1ncn2c1CN(C(=O)c1cccc3cccnc13)CC2` ?
Result: 19.6%

Problem: Record request: cytotoxicity at 70.5 h value, item `CCc1nnc2n1CCN(CC(=O)Nc1sccc1C#N)C2`
Result: -9.93%

Problem: Any idea what its cytotoxicity at 70.5 h is? The compound is O=C(COCC1CCCCO1)N1CCN(Cc2ccccc2F)C(=O)C1 (centres undefined)
Result: -1.62%

The measurements presented in this section are drawn from ChEMBL document CHEMBL3507680.
